# assay.info: Ratio of IC50 value for human plasma renin(pH 7.4) and purified human renin(pH 6.0)
# Type: functional
Here the recorded Ratio is given for each entry.

Below, each entry is followed by its recorded Ratio result.
CC(C)C[C@H](O)[C@H](O)[C@H](CC1CCCCC1)NC(=O)[C@H](Cc1c[nH]cn1)NC(=O)[C@H](Cc1ccccc1)OC(=O)N1CCOCC1; 3.7
CC(C)C[C@H](O)[C@H](O)[C@H](CC1CCCCC1)NC(=O)[C@H](Cc1c[nH]cn1)NC(=O)[C@H](CCc1ccccc1)NC(=O)N1CCOCC1; 6.7
CC(C)C[C@H](O)[C@H](O)[C@H](CC1CCCCC1)NC(=O)[C@H](Cc1c[nH]cn1)NC(=O)[C@H](Cc1ccccc1)NC(=O)N1CCNCC1; 6.9

Just so you know, measured Ratio for `CC(C)C[C@H](O)[C@H](O)[C@H](CC1CCCCC1)NC(=O)[C@H](Cc1c[nH]cn1)NC(=O)/C(=C/c1ccccc1)CC(=O)N1CCOCC1` came out at 2.7

Just so you know, measured Ratio for `CC(C)C[C@H](O)[C@H](O)[C@H](CC1CCCCC1)NC(=O)[C@H](Cc1c[nH]cn1)NC(=O)[C@@H](NC(=O)N1CCOCC1)C(C)(C)c1ccccc1` came out at 25

Just so you know, measured Ratio for `CC(C)C[C@H](O)[C@H](O)[C@H](CC1CCCCC1)NC(=O)[C@H](Cc1c[nH]cn1)NC(=O)[C@H](Cc1ccccc1)NC(=O)N(C)CCO` came out at 1.8

* * *

# assay.info: Ratio of IC50 value for human plasma renin(pH 7.4) and purified human renin(pH 6.0)
# Assay type: functional
quantity: Ratio
Lab note: write the figure by itself, no unit.

Below, each entry is followed by its recorded Ratio result.
COc1ccc(C[C@H](NC(=O)N2CCOCC2)C(=O)N[C@@H](Cc2c[nH]cn2)C(=O)N[C@@H](CC2CCCCC2)[C@@H](O)[C@@H](O)CC(C)C)cc1; 3.2
CC(C)C[C@H](O)[C@H](O)[C@H](CC1CCCCC1)NC(=O)[C@H](Cc1c[nH]cn1)NC(=O)[C@H](Cc1ccccc1)NC(=O)N(C)C; 6.6
CC(C)C[C@H](O)[C@H](O)[C@H](CC1CCCCC1)NC(=O)[C@H](Cc1c[nH]cn1)NC(=O)[C@H](Cc1ccccc1)NC(=O)N1CCC(O)CC1; 1.6
CC(C)C[C@H](O)[C@H](O)[C@H](CC1CCCCC1)NC(=O)[C@H](Cc1c[nH]cn1)NC(=O)[C@@H](Cc1ccccc1)NC(=O)N1CCOCC1; 10
CC(C)C[C@H](O)[C@H](O)[C@H](CC1CCCCC1)NC(=O)[C@H](Cc1c[nH]cn1)NC(=O)/C(=C/c1ccccc1)NC(=O)N1CCOCC1; 9.1

Field: next compound
Just so you know, measured Ratio for `CC(C)C[C@H](O)[C@H](O)[C@H](CC1CCCCC1)NC(=O)[C@H](Cc1c[nH]cn1)N(C)C(=O)[C@H](Cc1ccccc1)NC(=O)N1CCOCC1` came out at 2.7

* * *

Here the recorded pIC50 is given for each entry.
# measured.target: UniProtKB P00797
# Sequence (P00797 whole entry): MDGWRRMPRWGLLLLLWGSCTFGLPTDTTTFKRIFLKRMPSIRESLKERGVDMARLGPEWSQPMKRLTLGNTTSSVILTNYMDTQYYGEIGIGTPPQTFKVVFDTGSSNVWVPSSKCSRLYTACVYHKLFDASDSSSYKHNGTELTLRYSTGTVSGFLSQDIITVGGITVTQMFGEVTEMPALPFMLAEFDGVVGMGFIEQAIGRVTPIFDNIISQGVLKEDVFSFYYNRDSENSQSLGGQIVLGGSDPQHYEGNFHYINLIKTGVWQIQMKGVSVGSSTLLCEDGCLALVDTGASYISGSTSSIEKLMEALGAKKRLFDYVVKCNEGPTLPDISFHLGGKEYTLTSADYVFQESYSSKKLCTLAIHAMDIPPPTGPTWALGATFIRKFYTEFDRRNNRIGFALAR
# assay.info: Inhibition of human plasma renin (pH 7.4)
# Assay type: cell-free
Please treat pIC50 as minus the base-10 logarithm of the molar concentration.

CC(C)C[C@H](O)[C@H](O)[C@H](CC1CCCCC1)NC(=O)[C@H](Cc1c[nH]cn1)N(C)C(=O)[C@H](Cc1ccccc1)NC(=O)N1CCOCC1; 8.60

Just so you know, measured pIC50 for `CC(C)C[C@H](O)[C@H](O)[C@H](CC1CCCCC1)NC(=O)[C@H](Cc1c[nH]cn1)NC(=O)[C@H](CCc1ccccc1)NC(=O)N1CCOCC1` came out at 8.70

Just so you know, measured pIC50 for `CC(C)C[C@H](O)[C@H](O)[C@H](CC1CCCCC1)NC(=O)[C@H](Cc1c[nH]cn1)NC(=O)[C@@H](Cc1ccccc1)NC(=O)N1CCOCC1` came out at 6.85

Just so you know, measured pIC50 for `CC(C)C[C@H](O)[C@H](O)[C@H](CC1CCCCC1)NC(=O)[C@H](Cc1c[nH]cn1)NC(=O)[C@H](Cc1ccccc1)NC(=O)N1CCC(O)CC1` came out at 9.17

Just so you know, measured pIC50 for `CC(C)C[C@H](O)[C@H](O)[C@H](CC1CCCCC1)NC(=O)[C@H](Cc1cnc[nH]1)NC(=O)[C@H](Cc1ccccc1)NC(=O)N(C)CCO` came out at 9.01

* * *

Here the recorded inhibition is given for each entry.
# measured.target: Cathepsin D (Bos taurus)
# assay.info: Inhibition of bovine cathepsin D at 1*10e-5
# condition.context: concentration not given here
The reply should be a number in %, with the unit left off.

Below, each entry is followed by its recorded inhibition result.
CC(C)C[C@H](O)[C@H](O)[C@H](CC1CCCCC1)NC(=O)[C@H](Cc1c[nH]cn1)NC(=O)[C@H](Cc1ccccc1)NC(=O)N1CCNCC1; 0
CC(C)C[C@H](O)[C@H](O)[C@H](CC1CCCCC1)NC(=O)[C@H](Cc1c[nH]cn1)NC(=O)[C@@H](CC(=O)N1CCOCC1)Cc1ccccc1; 0

Field: next compound
Just so you know, measured inhibition for `CC(C)C[C@H](O)[C@H](O)[C@H](CC1CCCCC1)NC(=O)[C@H](Cc1c[nH]cn1)NC(=O)[C@H](Cc1ccccc1)NC(=O)N(C)C` came out at 3

* * *

# measured.target: Renin (Homo sapiens, UniProt P00797)
# Sequence (P00797 whole entry): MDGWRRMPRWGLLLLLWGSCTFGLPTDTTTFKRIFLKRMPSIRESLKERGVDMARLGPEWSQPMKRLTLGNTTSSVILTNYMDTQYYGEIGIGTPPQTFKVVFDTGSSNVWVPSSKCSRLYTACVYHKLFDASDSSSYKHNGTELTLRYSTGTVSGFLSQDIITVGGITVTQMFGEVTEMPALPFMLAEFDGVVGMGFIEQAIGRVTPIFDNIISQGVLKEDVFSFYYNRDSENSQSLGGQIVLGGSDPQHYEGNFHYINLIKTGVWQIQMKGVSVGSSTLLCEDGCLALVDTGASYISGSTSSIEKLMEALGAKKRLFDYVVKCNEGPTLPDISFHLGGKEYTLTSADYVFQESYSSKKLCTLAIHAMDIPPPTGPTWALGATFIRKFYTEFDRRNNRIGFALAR
# assay.info: Inhibition of purified human renin (pH 6.0)
Here the recorded pIC50 is given for each entry.
Please treat pIC50 as minus the base-10 logarithm of the molar concentration.

Below, each entry is followed by its recorded pIC50 result.
COc1ccc(C[C@H](NC(=O)N2CCOCC2)C(=O)N[C@@H](Cc2cnc[nH]2)C(=O)N[C@@H](CC2CCCCC2)[C@@H](O)[C@@H](O)CC(C)C)cc1; 9.12
CC(C)C[C@H](O)[C@H](O)[C@H](CC1CCCCC1)NC(=O)[C@H](Cc1cnc[nH]1)NC(=O)[C@@H](NC(=O)N1CCOCC1)C(C)(C)c1ccccc1; 8.59
CC(C)C[C@H](O)[C@H](O)[C@H](CC1CCCCC1)NC(=O)[C@H](Cc1c[nH]cn1)NC(=O)[C@H](CCc1ccccc1)NC(=O)N1CCOCC1; 9.52
CC(C)C[C@H](O)[C@H](O)[C@H](CC1CCCCC1)NC(=O)[C@H](Cc1c[nH]cn1)NC(=O)[C@@H](Cc1ccccc1)NC(=O)N1CCOCC1; 7.85
CC(C)C[C@H](O)[C@H](O)[C@H](CC1CCCCC1)NC(=O)[C@H](Cc1c[nH]cn1)NC(=O)/C(=C/c1ccccc1)NC(=O)N1CCOCC1; 9.24
CC(C)C[C@H](O)[C@H](O)[C@H](CC1CCCCC1)NC(=O)[C@H](Cc1cnc[nH]1)NC(=O)[C@H](Cc1ccccc1)NC(=O)N(C)CCO; 9.26
CC(C)C[C@H](O)[C@H](O)[C@H](CC1CCCCC1)NC(=O)[C@H](Cc1c[nH]cn1)NC(=O)[C@H](Cc1ccccc1)NC(=O)N1CCC(O)CC1; 9.38
CC(C)C[C@H](O)[C@H](O)[C@H](CC1CCCCC1)NC(=O)[C@H](Cc1cnc[nH]1)NC(=O)[C@H](Cc1ccccc1)NC(=O)N1CCOCC1; 9.46

Considering `CC(C)C[C@H](O)[C@H](O)[C@H](CC1CCCCC1)NC(=O)[C@H](Cc1c[nH]cn1)N(C)C(=O)[C@H](Cc1ccccc1)NC(=O)N1CCOCC1` , its pIC50 with Renin (Homo sapiens, UniProt P00797) was recorded as 9.03

Considering `CC(C)C[C@H](O)[C@H](O)[C@H](CC1CCCCC1)NC(=O)[C@H](Cc1c[nH]cn1)NC(=O)[C@H](Cc1ccccc1)OC(=O)N1CCOCC1` , its pIC50 with Renin (Homo sapiens, UniProt P00797) was recorded as 9.09

Considering `CC(C)C[C@H](O)[C@H](O)[C@H](CC1CCCCC1)NC(=O)[C@H](Cc1c[nH]cn1)NC(=O)[C@@H](CC(=O)N1CCOCC1)Cc1ccccc1` , its pIC50 with Renin (Homo sapiens, UniProt P00797) was recorded as 9.54

Considering `CC(C)C[C@H](O)[C@H](O)[C@H](CC1CCCCC1)NC(=O)[C@H](Cc1c[nH]cn1)NC(=O)[C@H](Cc1ccccc1)NC(=O)N(C)C` , its pIC50 with Renin (Homo sapiens, UniProt P00797) was recorded as 9.30

Considering `CC(C)C[C@H](O)[C@H](O)[C@H](CC1CCCCC1)NC(=O)[C@H](Cc1c[nH]cn1)NC(=O)/C(=C/c1ccccc1)CC(=O)N1CCOCC1` , its pIC50 with Renin (Homo sapiens, UniProt P00797) was recorded as 9.10
